assay: qHTS assay to identify small molecule HDAC inhibitors (AID 1259364); settings: HCT-116 HDAC-Glo I/II luminescence, 2 h; series mostly up to 92.4 µM;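 note: wild-type HCT-116 cells with endogenous class I/II HDAC activity; nearly all actives have a fitted effect of over 45% in size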
Records with an inconclusive call do not appear. The source made the active and inactive calls. Calls come from the whole dose curve; as a rule, active = well fitted inhibition curve with a large enough effect in the repeat runs; inconclusive = weak or mixed curves; inactive = flat fitted curve, though single readings scatter.
Outcome codes: Y for active, N for inactive

compound: CCCCCCCCc1ccc(S(=O)(=O)O)cc1
answer_label: N

compound: CC1(O)CSC(C)(O)CS1 (configuration not stated)
answer_label: Y

compound: CCCOCCC
answer_label: N

compound: CC(=O)OC1C2(C)CCC(C2)C1(C)C (configuration not stated)
answer_label: N

compound: CCCCOc1cc(C(=O)NCCN(CC)CC)c2ccccc2n1
answer_label: N

compound: O=C1Nc2ccc([N+](=O)[O-])cc2C1=O
answer_label: N

compound: Cc1c(N)cccc1N
answer_label: N

compound: CN1CCN(C2=Nc3ccccc3Oc3ccc(Cl)cc32)CC1
answer_label: N

compound: CC(C)C[C@H](NC(=O)OCC1c2ccccc2-c2ccccc21)C(=O)O
answer_label: N

compound: NC/C=C/C(=O)O
answer_label: N

compound: CN1CCN(N)CC1
answer_label: N

compound: Cc1cc(S(=O)(=O)O)c(N)cc1Cl
answer_label: N

compound: O=C(CCCl)NCc1ccccc1
answer_label: N

compound: CN1CCN(c2c(F)cc3c(=O)c(C(=O)O)cn4c3c2SCC4)CC1
answer_label: N

compound: c1ccc(CN(CC2=NCCN2)c2ccccc2)cc1
answer_label: N

compound: CCN(O)CC
answer_label: Y

compound: CC1=C(O)C(=O)OC1C (configuration not stated)
answer_label: N

compound: CO[C@@]1(NC(=O)CSCC#N)C(=O)N2C(C(=O)O)=C(CSc3nnnn3C)CS[C@@H]21
answer_label: N

compound: COC(=O)/C=C(/C)N
answer_label: N

compound: CC/C=C\CCOC(=O)CCCCC
answer_label: N

compound: NC(=O)Cc1cccc(C(=O)c2ccccc2)c1N
answer_label: N

compound: CCN(CC)CC1CCCCN1CC(=O)N1c2ccccc2C(=O)Nc2cccnc21 (configuration not stated)
answer_label: N

---

experiment: qHTS assay for small molecule disruptors of the mitochondrial membrane potential (AID 720635); conditions: HepG2 mitochondrial membrane potential, Mito-MPS dye ratio; series mostly up to 83.2 µM
Results filed as inconclusive are left out. The source made the active and inactive calls. The call rests on the fitted dose curve; in most records, active means well fitted inhibition curve with a large enough effect in the signal ratio in the repeat runs; inconclusive means weak or mixed curves, or effect the other way; inactive means flat fitted curve, though single readings scatter; the % refers to the signal ratio.
Labels: True = active, False = inactive

compound: CCCCNC(=S)NCCCC
answer_label: False
//
compound: O=[N+]([O-])c1nccn1CO[C@@H](CO)[C@H](O)CO
answer_label: False
//
compound: CCCCCCCOC(=O)CCC
answer_label: False
//
compound: COc1ccccc1OCC(O)COC(N)=O (configuration not stated)
answer_label: False
//
compound: O=C(O)c1cccc(Cl)c1Cl
answer_label: False
//
compound: O=C1Nc2ccc([N+](=O)[O-])cc2C1=O
answer_label: True
//
compound: COC(=O)c1ccc(OC)cc1
answer_label: False

---

test: qHTS assay to identify small molecule antagonists of the androgen receptor (AR) signaling pathway using the MDA cell line - cell viability counter screen (AID 743041; note: nearly all actives have a fitted effect of over 45% in size); settings: MDA-kb2 viability, CellTiter-Fluor, 16 h, cells co-treated with R1881 androgen agonist; series mostly up to 70.3 µM
Inconclusive results are not listed. Active and inactive are the calls of the source. Calls follow the shape of the dose curve; as a rule, active = well fitted cell-killing curve with a large enough effect in the repeat runs; inconclusive = weak or mixed curves, or effect the other way; inactive = flat fitted curve, though single readings scatter.
Classes used: active, inactive

compound: CC[C@H]1CC[C@H](NCc2cc3c(cc2OC)[C@H]2C[C@H]2C(=O)N3C)[C@H](c2ccccc2)N1
answer_label: active
//
compound: CC(=O)OC(C)OC(C)=O
answer_label: inactive
//
compound: CCCCC(CC)COC(=O)COc1cc(Cl)c(Cl)cc1Cl (centres undefined)
answer_label: inactive
//
compound: CC(C)NC[C@@H](O)COc1cccc2ccccc12
answer_label: inactive
//
compound: CC(C)C(=O)OCC(C)(C)C(O)C(C)C (centres undefined)
answer_label: inactive
//
compound: CCCCC1CCC(=O)O1 (centres undefined)
answer_label: inactive
//
compound: C=Cc1ccccc1
answer_label: inactive
//
compound: CCCCCCCCOC(=O)CCCCCCCCC(=O)OCCCCCCCC
answer_label: inactive
//
compound: CCC(=O)Nc1ccc(O)cc1
answer_label: inactive
//
compound: O=C(CC(=O)C(F)(F)F)c1ccccc1
answer_label: inactive
//
compound: O=c1[nH]c(=O)n([C@H]2C[C@H](O)[C@@H](CO)O2)cc1C(F)(F)F
answer_label: inactive
//
compound: CNCCC(Oc1ccccc1OC)c1ccccc1 (centres undefined)
answer_label: inactive
//
compound: O=C1CCN(c2ccccc2)N1
answer_label: inactive
//
compound: CC(C)C1=CC2=CC[C@@H]3[C@](C)(CCC[C@@]3(C)C(=O)O)[C@H]2CC1
answer_label: inactive
//
compound: CS(=O)(=O)c1ccc([C@@H](O)[C@@H](CF)NC(=O)C(Cl)Cl)cc1
answer_label: inactive
//
compound: Cc1c(C(=O)NCCO)[n+](=O)c2ccccc2n1[O-]
answer_label: inactive
//
compound: CCNCCO
answer_label: inactive
//
compound: CC(C)(CO)[C@@H](O)C(=O)NCCC(=O)O
answer_label: inactive
//
compound: O=C(Cl)c1cccc([N+](=O)[O-])c1
answer_label: inactive
//
compound: CCCCN1C[C@H](O)[C@@H](O)[C@H](O)[C@H]1CO
answer_label: inactive
//
compound: CCOc1ccc(NS(=O)(=O)c2ccc(N)cc2)nn1
answer_label: inactive
//
compound: CCCCCCCCCC/C=C/C#N
answer_label: inactive
//
compound: C=O
answer_label: inactive
//
compound: Cc1ccc(C=O)s1
answer_label: inactive
//
compound: CCC/C=C/CO
answer_label: inactive
//
compound: CC1(C)S[C@@H]2[C@H](NC(=O)C(C(=O)O)c3ccccc3)C(=O)N2[C@H]1C(=O)O (some centres undefined)
answer_label: inactive
//
compound: C[C@@H]1CN(c2c(F)c(F)c3c(=O)c(C(=O)O)cn(C4CC4)c3c2F)C[C@H](C)N1
answer_label: inactive
//
compound: CC(C)(C)C1CCCCC1=O (centres undefined)
answer_label: inactive
//
compound: COC(=O)C(C)O (centres undefined)
answer_label: inactive
//
compound: CC1CN(c2ccccc2)NC1=O (centres undefined)
answer_label: inactive
//
compound: NS(=O)(=O)c1cc(-c2nn[nH]n2)c(NCc2cccs2)cc1Cl
answer_label: inactive
//
compound: CCOc1ccc(OCC)c(Cl)c1
answer_label: inactive
//
compound: CN(C)C(=O)NC1(c2ccccc2)CCN(CCC[C@]2(c3ccc(Cl)c(Cl)c3)CCCN(C(=O)c3ccccc3)C2)CC1
answer_label: inactive
//
compound: COC(=O)c1ccc(OC)cc1
answer_label: inactive

---

assay: A CellTox Green Cytotoxicity Assay to monitor cytotoxicity in HepG2 cells - 40 hour (AID 1224879); conditions: CellTox Green fluorescence; series mostly up to 76.8 µM; note: nearly all actives have a fitted effect of over 40% in size; note: potency is the fitted concentration of half-maximal effect
Records with an inconclusive call do not appear. The source made the active and inactive calls. Calls come from the whole dose curve; as a rule, active = well fitted activation curve with a large enough effect in the repeat runs; inconclusive = weak or mixed curves; inactive = flat fitted curve, though single readings scatter.

molecule: C=CC(C)(O)CC/C=C(\C)CCC=C(C)C (stereo unspecified)
Potency: 21.9 µM (active)
//
molecule: CC(=O)N[C@@H](CC(C)C)C(=O)O
Potency: inactive
//
molecule: CCCC(CCC)(C(=O)OCC)C(=O)OCC
Potency: inactive
//
molecule: C=CCCC=C
Potency: inactive
//
molecule: CCCCCCCCCC#N
Potency: inactive
//
molecule: O=C1Nc2ccc([N+](=O)[O-])cc2C1=O
Potency: inactive
//
molecule: CC(C)(C)C1CCCCC1=O (stereo unspecified)
Potency: inactive
//
molecule: CCCCCCCCCCCCOCCOS(=O)(=O)O
Potency: 54.9 µM (active)
//
molecule: CO[Si](C)(C)OC
Potency: inactive
//
molecule: O=C(CC(=O)C(F)(F)F)c1ccccc1
Potency: inactive
//
molecule: C[C@]12CCC(=O)C=C1CC[C@@H]1[C@@H]2CC[C@@]2(C)[C@H]1CC[C@]2(O)C(=O)CO
Potency: inactive
//
molecule: Cc1cc2c(s1)Nc1ccccc1N=C2N1CCN(C)CC1
Potency: inactive
//
molecule: CC1=CC(=O)CC(C)(C)C1=O
Potency: inactive
//
molecule: CN1CCN(N)CC1
Potency: inactive
//
molecule: CCOC(=O)[C@H](CCc1ccccc1)N[C@@H](C)C(=O)N1Cc2cc(OC)c(OC)cc2C[C@H]1C(=O)O
Potency: inactive
//
molecule: Cc1ccc([N+](=O)[O-])c(N)c1
Potency: inactive
//
molecule: CCOc1ccc(NC(N)=O)cc1
Potency: inactive
//
molecule: CNCCC(Oc1ccccc1OC)c1ccccc1 (stereo unspecified)
Potency: inactive
//
molecule: FC(F)(F)c1ccccc1
Potency: inactive
//
molecule: O=C1CCCc2ccccc21
Potency: inactive
//
molecule: CC(Oc1c(Cl)cccc1Cl)C1=NCCN1 (stereo unspecified)
Potency: inactive

---

test: qHTS assay to identify small molecule agonists of the retinoic acid receptor (RAR) signaling pathway (AID 1159553); details: C3RL4 RARE luciferase reporter, agonist, 6 h; series mostly up to 73.3 µM
Inconclusive results are not listed. Calls of active or inactive are those of the source. Calls come from the whole dose curve; as a rule, active = well fitted activation curve with a large enough effect in the repeat runs; inconclusive = weak or mixed curves, or effect the other way; inactive = no such curve, though single readings can be large or run the other way.

molecule: CCN1CC(CCN2CCOCC2)C(c2ccccc2)(c2ccccc2)C1=O (stereo unspecified)
outcome: inactive

molecule: OCC(CBr)(CBr)CBr
outcome: inactive

molecule: CN1CCN(C2=Nc3ccccc3Oc3ccc(Cl)cc32)CC1
outcome: inactive

molecule: CCOC(=O)COc1ccc2c(c1)CC(NCC(O)c1cccc(Cl)c1)CC2 (stereo unspecified)
outcome: inactive

molecule: CO[Si](C)(C)OC
outcome: inactive

molecule: O=C1CCN(c2ccccc2)N1
outcome: inactive
